So I've got a bunch of compounds here, and I need their activation values.
# Tested system: G-protein coupled receptor 55 (Homo sapiens)
# Test: GPR55 agonists via beta-arrestin recruitment, primary screen, imaging, U2OS cells, beta-arrestin-GFP redistribution (AID 1961);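 note: U2OS osteosarcoma cells stably expressing GPR55 and beta-arrestin-GFP; plate controls were DMSO negative control for no effect and LPI positive control for full effect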
# Assay context: at 10 µM, stronger effect = higher value
Hit rate of the full screen: of about 290,000 compounds, about 140 (0.048%) were called active. What follows is part of a selection rich in actives, with near analogues and random picks from the rest.

Answered cases to consult:
INSERT INTO measurements (compound, value_observed) VALUES
  ('CC(C)Cn1c(N)c(C(=O)COC(=O)c2cc(-c3ccco3)nc3ccccc23)c(=O)n(C)c1=O', '-0.1% (inactive)'),
  ('Cc1ccc(CNC(=O)CCS(=O)(=O)c2ccc3c(c2)NC(=O)CO3)cc1', '-0.2% (inactive)'),
  ('N#Cc1c2n(c(=S)n(-c3ccc(F)cc3)c1=O)CCCCC2', '-0.3% (inactive)'),
  ('CNC(=O)CSc1nnc(-c2cccs2)o1', '0.3% (inactive)'),
  ('CCOc1ccc(/C=N/NC(=O)C(C)N(c2ccc(OC)cc2)S(C)(=O)=O)cc1OCC (stereo not drawn)', '0.6% (inactive)'),
  ('Cc1nn2c(C(F)(F)F)c3c(nc2c1-c1ccccc1)CCC3', '0.4% (inactive)'),
  ('CCOC(=O)CS(=O)(=O)c1nc(-c2ccccc2)cc(C(F)(F)F)n1', '49.8% (active)'),
  ('COc1cc2c3nnc(-c4ccccc4)c-3cn(Cc3ccc(F)cc3)c2cc1OC', '1.3% (inactive)');

State recorded activation for all listed compounds.
1. CCC1Sc2ccc(S(=O)(=O)CCC(=O)Nc3cc(C)ccn3)cc2NC1=O (stereo not drawn)
2. COc1ccc(CNc2nc(-c3cccnc3)nn2S(C)(=O)=O)cc1

*A*
1. -0.1% (inactive)
2. 1.3% (inactive)

State recorded activation for all listed compounds.
1. O=C(Cn1nc(-c2ccco2)ccc1=O)Nc1cc(C(F)(F)F)ccc1Cl
2. Clc1ccc(OCc2cn3ccccc3n2)c2ncccc12
3. COc1cc(OC)cc(C(=O)N2CCN(c3ccccc3F)CC2)c1

*A*
1. -0.1% (inactive)
2. -0.1% (inactive)
3. -0.2% (inactive)
